# Test system: SN12C renal
# ASSAY SUMMARY: NCI tumour cell line growth inhibition, 48 h

STRUCTURE SMILES | TGI
NC1=Nc2ncccc2C(=O)NN1 | > 10 µM
Cc1n[nH]c(=O)c2c3c([nH]c12)-c1ccccc1C3 | > 100 µM
CCOC(=O)c1c(NS(=O)(=O)c2ccccc2)sc2c1CCCC2 | > 100 µM
CC(C)(C)n1cc(-c2ccnc(NCCCNS(=O)(=O)c3cccc4ccccc34)c2)c(-c2cccc(O)c2)n1 | 3.33 µM
CCCCCCCCCC(=O)Oc1ccc(/C(=C(/C)c2ccccc2)c2ccc(OCCN3CCCC3)cc2)cc1 | 17.9 µM
CCOC(=O)/C(C(=O)c1ccc[nH]1)=C1/CCCN1C | > 100 µM
